testedOn: Interleukin-1 receptor-associated kinase 4 (Homo sapiens, UniProt Q9NWZ3)
Sequence (Q9NWZ3 whole entry): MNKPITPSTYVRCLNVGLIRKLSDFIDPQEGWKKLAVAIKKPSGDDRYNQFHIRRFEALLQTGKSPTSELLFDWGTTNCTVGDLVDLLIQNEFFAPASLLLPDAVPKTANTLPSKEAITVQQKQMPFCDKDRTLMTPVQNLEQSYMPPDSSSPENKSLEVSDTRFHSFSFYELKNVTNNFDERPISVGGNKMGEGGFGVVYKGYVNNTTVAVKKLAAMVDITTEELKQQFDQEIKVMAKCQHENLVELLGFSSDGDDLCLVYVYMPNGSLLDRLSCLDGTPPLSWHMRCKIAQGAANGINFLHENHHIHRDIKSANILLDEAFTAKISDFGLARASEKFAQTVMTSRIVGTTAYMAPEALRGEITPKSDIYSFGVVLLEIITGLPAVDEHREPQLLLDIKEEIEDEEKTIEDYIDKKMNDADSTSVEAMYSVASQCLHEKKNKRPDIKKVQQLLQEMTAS
protocolSummary: Inhibition of recombinant human full-length His-tagged IRAK4 expressed in baculovirus expression system using 5-FAM-IPTSPITTTYFFFKKK-COOH as substrate measured after 240 mins by mobility shift assay
Kindly state IC50 for each of the entries shown.

Example entries begin here.
Cc1ncsc1-c1ccc(CNC(=O)[C@@H]2C[C@@H](O)CN2C(=O)[C@@H](NC(=O)COCCOCCOCCOCCOCCOCC(=O)N2CCN([C@H]3CC[C@@H](Nc4ncnn5ccc(C(C)C)c45)CC3)CC2)C(C)(C)C)cc1
> 10 µM
CC(=O)N1CCN([C@H]2CC[C@@H](Nc3ncnc4[nH]cc(C(C)C)c34)CC2)CC1
0.84 µM
CC(C)c1ccn2ncnc(N[C@H]3CC[C@@H](N4CCN(C(=O)CCOCCOCCOCCNc5cccc6c5C(=O)N(C5CCC(=O)NC5=O)C6=O)CC4)CC3)c12 (stereo partly specified)
7.8 µM
Cc1ncsc1-c1ccc(CNC(=O)[C@@H]2C[C@@H](O)CN2C(=O)[C@@H](NC(=O)COCCOCCOCCOCCNC(=O)CCC(=O)N2CCN([C@H]3CC[C@@H](Nc4ncnn5ccc(C(C)C)c45)CC3)CC2)C(C)(C)C)cc1
> 1 µM

Look up IC50 for the entries below, preserving their order.
1. Cc1ncsc1-c1ccc(CNC(=O)[C@@H]2C[C@@H](O)CN2C(=O)[C@@H](NC(=O)CCCNC(=O)CCC(=O)N2CCN([C@H]3CC[C@@H](Nc4ncnn5ccc(C(C)C)c45)CC3)CC2)C(C)(C)C)cc1
2. CC(C)c1ccn2ncnc(N[C@H]3CC[C@@H](N4CCN(C(=O)CCC(=O)NCCCCNc5cccc6c5C(=O)N(C5CCC(=O)NC5=O)C6=O)CC4)CC3)c12 (stereo partly specified)
3. Cc1ncsc1-c1ccc(CNC(=O)[C@@H]2C[C@@H](O)CN2C(=O)[C@@H](NC(=O)COCCOCCOCCOCC(=O)N2CCN([C@H]3CC[C@@H](Nc4ncnn5ccc(C(C)C)c45)CC3)CC2)C(C)(C)C)cc1
4. CC(C)c1ccn2ncnc(N[C@H]3CC[C@@H](N4CCN(C(=O)CCOCCOCCOCCOCCOCCNc5cccc6c5C(=O)N(C5CCC(=O)NC5=O)C6=O)CC4)CC3)c12 (stereo partly specified)
5. Cc1ncsc1-c1ccc(CNC(=O)[C@@H]2C[C@@H](O)CN2C(=O)[C@@H](NC(=O)COCCOCCNC(=O)CCC(=O)N2CCN([C@H]3CC[C@@H](Nc4ncnn5ccc(C(C)C)c45)CC3)CC2)C(C)(C)C)cc1
6. Cc1ncsc1-c1ccc(CNC(=O)[C@@H]2C[C@@H](O)CN2C(=O)[C@@H](NC(=O)COCCOCCOCCNC(=O)CCC(=O)N2CCN([C@H]3CC[C@@H](Nc4ncnn5ccc(C(C)C)c45)CC3)CC2)C(C)(C)C)cc1

Key:
1. > 1 µM
2. > 1 µM
3. > 10 µM
4. > 10 µM
5. > 10 µM
6. > 1 µM

Exercise: Please give the measured IC50 for this molecule: CC(C)c1ccn2ncnc(N[C@H]3CC[C@@H](N4CCN(C(=O)CCOCCOCCOCCOCCNc5cccc6c5C(=O)N(C5CCC(=O)NC5=O)C6=O)CC4)CC3)c12 (stereo partly specified)
Key: > 10 µM
